Would you mind telling me the reported IR/IGF-1R comparison of each entry?
STUDY_SYSTEM: T1, soluble human insulin receptor-immunoglobulin heavy chain chimera (sIR-Fc; Bass et al., 1996) (human, UniProt P06213 28-956, limits assumed)
T1 construct: extracellular domain; also called soluble IR (Bass construct); not shown: immunoglobulin heavy chain constant domains
EXPERIMENTAL_PROTOCOL: phage ELISA

-- ask What does the record list as IR/IGF-1R comparison for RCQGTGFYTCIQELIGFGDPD [20E2B-4-H9-IGFR] ?
-- reply 0.2

-- ask What does the record list as IR/IGF-1R comparison for GFREGSFYDWFQAQVT [E4Dα-2-D11-IR] ?
-- reply 0.3

-- ask What does the record list as IR/IGF-1R comparison for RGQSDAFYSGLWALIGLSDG [R20β-4-A6-IR] ?
-- reply 0.1

-- ask What does the record list as IR/IGF-1R comparison for EGSGFYGYFFSLLGLQG [NNRPγ-4-A9-IR] ?
-- reply 0.1

-- ask What does the record list as IR/IGF-1R comparison for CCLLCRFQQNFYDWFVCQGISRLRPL [H2CA-2-B4-IGFR] ?
-- reply 0.3

-- ask What does the record list as IR/IGF-1R comparison for PPLASDLDVQFYGWFVQQVSPPGRGG [H2CA-2-B3-IGFR] ?
-- reply 0.3

-- ask What does the record list as IR/IGF-1R comparison for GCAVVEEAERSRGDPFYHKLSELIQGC [B6Hα-3-E7-IR] ?
-- reply 0.2

-- ask What does the record list as IR/IGF-1R comparison for LKDGFYDYFWQRLHLGS [NNRPγ-4-B11-IR] ?
-- reply 0.1

-- ask What does the record list as IR/IGF-1R comparison for RGIVAMVEATEVGSDHDPFYHKLSELVQGS [B6Hα-2-C7-IR] ?
-- reply 0.1

-- ask What does the record list as IR/IGF-1R comparison for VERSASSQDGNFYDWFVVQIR [A6S-2-D1-IR] ?
-- reply 0.4

-- ask What does the record list as IR/IGF-1R comparison for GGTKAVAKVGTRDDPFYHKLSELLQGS [B6Hα-4-G8-IR] ?
-- reply 0.3

-- ask What does the record list as IR/IGF-1R comparison for IIGGFYSYFNSVLRLGT [NNRPγ-4-A1-IR] ?
-- reply 0.2

-- ask What does the record list as IR/IGF-1R comparison for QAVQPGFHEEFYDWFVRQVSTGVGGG [H2CA-4-H4-IGFR] ?
-- reply 0.2

-- ask What does the record list as IR/IGF-1R comparison for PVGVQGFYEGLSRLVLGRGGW [20E2B-4-F8-IGFR] ?
-- reply 0.1

-- ask What does the record list as IR/IGF-1R comparison for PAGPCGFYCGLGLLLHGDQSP [20E2B-4-H8-IGFR] ?
-- reply 0.2

-- ask What does the record list as IR/IGF-1R comparison for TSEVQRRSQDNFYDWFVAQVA [A6S-3-E2-IR] ?
-- reply 0.4

-- ask What does the record list as IR/IGF-1R comparison for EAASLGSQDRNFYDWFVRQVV [A6S-2-D11-IR] ?
-- reply 0.4

-- ask What does the record list as IR/IGF-1R comparison for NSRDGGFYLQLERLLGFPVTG [20E2B-3-D4-IGFR] ?
-- reply 0.1

-- ask What does the record list as IR/IGF-1R comparison for AICDAGFHEHFYDWFALQVSDCGRQS [H2CA-2-B11-IGFR] ?
-- reply 0.3

-- ask What does the record list as IR/IGF-1R comparison for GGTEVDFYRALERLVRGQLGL [20E2B-3-D8-IGFR] ?
-- reply 0.1

-- ask What does the record list as IR/IGF-1R comparison for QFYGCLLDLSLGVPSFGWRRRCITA [20C-3-A4-IGFR] ?
-- reply 0.1

-- ask What does the record list as IR/IGF-1R comparison for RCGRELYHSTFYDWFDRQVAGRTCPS [H2CA-1-A7-IGFR] ?
-- reply 0.3

-- ask What does the record list as IR/IGF-1R comparison for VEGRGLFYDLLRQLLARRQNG [20E2B-3-C6-IGFR] ?
-- reply 0.1

-- ask What does the record list as IR/IGF-1R comparison for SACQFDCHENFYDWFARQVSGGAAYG [H2CA-4-H8-IGFR] ?
-- reply 0.1

-- ask What does the record list as IR/IGF-1R comparison for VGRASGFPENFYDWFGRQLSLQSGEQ [H2CA-4-H6-IGFR] ?
-- reply 0.1

-- ask What does the record list as IR/IGF-1R comparison for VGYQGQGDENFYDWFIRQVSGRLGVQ [H2CA-4-F5-IGFR] ?
-- reply 0.1

-- ask What does the record list as IR/IGF-1R comparison for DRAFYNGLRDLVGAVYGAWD [R20α-4-20C11-IR] ?
-- reply 0.1

-- ask What does the record list as IR/IGF-1R comparison for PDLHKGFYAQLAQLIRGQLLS [20E2B-3-E3-IGFR] ?
-- reply 0.1
